Source listed as the supplement of paper PMC6555819.

system: FXR:RXRa (NR concentration 270 nM, RXRa partner concentration 90 nM); assay: PBM binding z-score (relative to random genomic background probes); higher = stronger binding; sequences stand for … in GC…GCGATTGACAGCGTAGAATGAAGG

chain	PBM binding z-score
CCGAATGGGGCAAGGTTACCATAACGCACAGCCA	0.248
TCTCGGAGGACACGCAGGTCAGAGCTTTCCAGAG	0.587
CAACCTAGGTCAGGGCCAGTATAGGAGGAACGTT	2.3
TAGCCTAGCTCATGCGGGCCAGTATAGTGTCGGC	-2.69
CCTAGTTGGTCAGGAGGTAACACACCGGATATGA	0.273

====

Some sequences, each annotated with its measured PBM binding z-score.
tested on: PXR homodimer (NR concentration 270 nM); assay: PBM binding z-score (relative to random genomic background probes); higher = stronger binding; sequences stand for … in GC…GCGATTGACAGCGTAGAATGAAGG
metric: PBM binding z-score

chain	subject-of-test	metric	result
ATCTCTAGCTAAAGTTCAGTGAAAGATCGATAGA	PXR homodimer (NR concentration 270 nM)	PBM binding z-score	1.85
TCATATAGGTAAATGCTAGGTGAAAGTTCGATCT	PXR homodimer (NR concentration 270 nM)	PBM binding z-score	0.91
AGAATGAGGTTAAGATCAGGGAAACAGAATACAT	PXR homodimer (NR concentration 270 nM)	PBM binding z-score	0.732
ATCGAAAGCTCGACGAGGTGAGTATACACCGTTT	PXR homodimer (NR concentration 270 nM)	PBM binding z-score	-0.326
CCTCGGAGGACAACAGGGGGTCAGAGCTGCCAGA	PXR homodimer (NR concentration 270 nM)	PBM binding z-score	0.0814

====

system: PXR:RXRa (NR concentration 270 nM, RXRa partner concentration 90 nM); assay: PBM binding z-score (relative to random genomic background probes); higher = stronger binding; sequences stand for … in GC…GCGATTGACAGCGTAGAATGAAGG
Label Y when PBM binding z-score is at or above 2; otherwise label N.

chain	label
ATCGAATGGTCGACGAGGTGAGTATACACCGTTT	N
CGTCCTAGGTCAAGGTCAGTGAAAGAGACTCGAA	Y
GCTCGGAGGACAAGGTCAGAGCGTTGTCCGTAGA	N
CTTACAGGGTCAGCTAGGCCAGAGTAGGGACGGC	N
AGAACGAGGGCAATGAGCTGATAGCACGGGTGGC	N
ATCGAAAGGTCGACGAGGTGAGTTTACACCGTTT	Y
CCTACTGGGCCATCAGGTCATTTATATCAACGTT	N
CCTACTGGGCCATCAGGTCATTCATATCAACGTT	N
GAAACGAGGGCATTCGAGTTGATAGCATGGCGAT	Y
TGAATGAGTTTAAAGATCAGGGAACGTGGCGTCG	N
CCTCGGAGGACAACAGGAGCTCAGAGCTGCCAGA	N
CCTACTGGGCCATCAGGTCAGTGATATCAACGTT	N
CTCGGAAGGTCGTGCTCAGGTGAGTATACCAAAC	N
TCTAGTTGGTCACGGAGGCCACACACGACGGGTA	N
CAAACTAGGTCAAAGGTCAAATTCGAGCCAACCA	Y

====

system: RARb homodimer (NR concentration 270 nM); assay: PBM binding z-score (relative to random genomic background probes); higher = stronger binding; sequences stand for … in GC…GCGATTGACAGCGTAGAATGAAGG
Give yes when the value for PBM binding z-score is at least 2. Give no when it is less.

chain	subject-of-test	label
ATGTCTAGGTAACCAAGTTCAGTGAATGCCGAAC	RARb homodimer (NR concentration 270 nM)	no
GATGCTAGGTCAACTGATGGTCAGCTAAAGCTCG	RARb homodimer (NR concentration 270 nM)	yes
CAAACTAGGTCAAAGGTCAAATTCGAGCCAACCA	RARb homodimer (NR concentration 270 nM)	yes
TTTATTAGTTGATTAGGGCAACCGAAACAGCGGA	RARb homodimer (NR concentration 270 nM)	no
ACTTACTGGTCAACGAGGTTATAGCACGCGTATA	RARb homodimer (NR concentration 270 nM)	no
